# SUBJECT_OF_TEST: Alpha-1A adrenergic receptor (Homo sapiens, UniProt P35348)
# Sequence (P35348 whole entry): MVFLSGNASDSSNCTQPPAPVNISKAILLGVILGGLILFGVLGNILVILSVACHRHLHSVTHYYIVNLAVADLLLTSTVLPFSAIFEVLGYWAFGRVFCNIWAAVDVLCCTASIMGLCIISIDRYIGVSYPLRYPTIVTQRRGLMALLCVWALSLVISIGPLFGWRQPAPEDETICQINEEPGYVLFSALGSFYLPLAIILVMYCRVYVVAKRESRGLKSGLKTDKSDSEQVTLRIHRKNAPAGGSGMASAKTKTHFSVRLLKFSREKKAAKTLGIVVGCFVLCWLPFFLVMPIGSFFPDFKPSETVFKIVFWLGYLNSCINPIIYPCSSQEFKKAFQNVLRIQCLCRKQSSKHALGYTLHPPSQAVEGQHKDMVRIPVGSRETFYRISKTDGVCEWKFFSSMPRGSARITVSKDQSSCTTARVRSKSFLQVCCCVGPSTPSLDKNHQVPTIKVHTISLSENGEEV
# ASSAY_NOTES: biochemical
# Description: Displacement of [3H]prazosin from alpha1A receptor expressed in HEK293 EBNA cells by radioligand binding assay
MEASURE_NAME: Ki

1) COc1ccccc1N1CCN(CCN(C(=O)C23C4C5C2C2C3C4C52CF)c2ccccn2)CC1 (stereo not drawn)
16 nM
2) COc1ccccc1N1CCN(CCN(C(=O)C23CCC(CF)(CC2)C3)c2ccccn2)CC1
36 nM
3) COc1ccccc1N1CCN(CCN(C(=O)C23CCC(CF)(CC2)CC3)c2ccccn2)CC1
74 nM

----------
# SUBJECT_OF_TEST: 5-hydroxytryptamine receptor 1A (Homo sapiens, UniProt P08908)
# Sequence (P08908 whole entry): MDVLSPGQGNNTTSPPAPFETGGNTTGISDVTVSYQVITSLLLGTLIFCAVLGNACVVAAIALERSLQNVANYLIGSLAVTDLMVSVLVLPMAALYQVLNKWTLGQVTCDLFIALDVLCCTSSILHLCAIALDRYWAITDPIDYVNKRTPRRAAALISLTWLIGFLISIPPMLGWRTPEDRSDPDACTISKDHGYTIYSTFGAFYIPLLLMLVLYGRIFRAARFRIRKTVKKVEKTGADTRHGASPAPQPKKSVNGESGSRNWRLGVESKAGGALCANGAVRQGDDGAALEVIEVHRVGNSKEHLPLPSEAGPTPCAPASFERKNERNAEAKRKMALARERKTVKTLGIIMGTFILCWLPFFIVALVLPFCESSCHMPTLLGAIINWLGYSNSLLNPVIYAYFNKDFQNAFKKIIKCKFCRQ
# ASSAY_NOTES: biochemical
# Description: Displacement of [3H]8-OH-DPAT from human 5HT1A receptor expressed in HEK293 EBNA cells after 2 hrs by liquid scintillation counting
Listed next: entries and their corresponding Ki.
MEASURE_NAME: Ki (nM)

1. O=C(N(CCN1CCN(c2ccccc2O)CC1)c1ccccn1)C12CCC(CF)(CC1)CC2
0.75
2. O=C(N(CCN1CCN(c2ccccc2O)CC1)c1ccccn1)C12CC3CC(CC(CF)(C3)C1)C2
1.1
3. COc1ccccc1N1CCN(CCN(C(=O)C23CCC(CF)(CC2)CC3)c2ccccn2)CC1
0.65
4. O=C(N(CCN1CCN(c2ccccc2O)CC1)c1ccccn1)C12CCC(CF)(CC1)C2
0.74
5. COc1ccccc1N1CCN(CCN(C(=O)C23CCC(CF)(CC2)C3)c2ccccn2)CC1
0.86

Cited source for all entries: ChEMBL document CHEMBL1909551
